B1: CHMP4C (parent)
chain: TNIRLPNVPSSSLPAQPNRKPGMS

variants of: B1; experiment: protein stability index of a GFP-peptide fusion (GPS, HEK-293T) (PSI 1-6); higher = more stable; conditions: c terminus: a fixed tail appended;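 also: lentivirally expressed fusions sorted by FACS into six bins by GFP to DsRed ratio, PSI derived from sequencing read proportions per bin multiplied by bin number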
Consider the following variants; for each one, report its protein stability index.
Answer with a bare number; do not write a unit.

protein stability index reported for this variant P17S : 4.21

protein stability index reported for this variant S24A : 4.48

protein stability index reported for this variant S11F : 4.12

protein stability index reported for this variant T1L : 3.24

protein stability index reported for this variant P6A : 3.96

protein stability index reported for this variant L5Q : 4.69

protein stability index reported for this variant I3Q : 4.87

protein stability index reported for this variant R19M : 4.37

protein stability index reported for this variant A15V : 4.59
